biological target: T1, human cMet expressed on 3T3 cells (human, UniProt P08581 25-1390); test: whole cell phage ELISA, 3T3 human cMet vs 3T3
T1 construct: whole, on cells; cells fixed with glutaraldehyde; also called cell surface-expressed human cMet; 3T3 cells that over-express human cMet
T1 sequence (P08581 25-1390): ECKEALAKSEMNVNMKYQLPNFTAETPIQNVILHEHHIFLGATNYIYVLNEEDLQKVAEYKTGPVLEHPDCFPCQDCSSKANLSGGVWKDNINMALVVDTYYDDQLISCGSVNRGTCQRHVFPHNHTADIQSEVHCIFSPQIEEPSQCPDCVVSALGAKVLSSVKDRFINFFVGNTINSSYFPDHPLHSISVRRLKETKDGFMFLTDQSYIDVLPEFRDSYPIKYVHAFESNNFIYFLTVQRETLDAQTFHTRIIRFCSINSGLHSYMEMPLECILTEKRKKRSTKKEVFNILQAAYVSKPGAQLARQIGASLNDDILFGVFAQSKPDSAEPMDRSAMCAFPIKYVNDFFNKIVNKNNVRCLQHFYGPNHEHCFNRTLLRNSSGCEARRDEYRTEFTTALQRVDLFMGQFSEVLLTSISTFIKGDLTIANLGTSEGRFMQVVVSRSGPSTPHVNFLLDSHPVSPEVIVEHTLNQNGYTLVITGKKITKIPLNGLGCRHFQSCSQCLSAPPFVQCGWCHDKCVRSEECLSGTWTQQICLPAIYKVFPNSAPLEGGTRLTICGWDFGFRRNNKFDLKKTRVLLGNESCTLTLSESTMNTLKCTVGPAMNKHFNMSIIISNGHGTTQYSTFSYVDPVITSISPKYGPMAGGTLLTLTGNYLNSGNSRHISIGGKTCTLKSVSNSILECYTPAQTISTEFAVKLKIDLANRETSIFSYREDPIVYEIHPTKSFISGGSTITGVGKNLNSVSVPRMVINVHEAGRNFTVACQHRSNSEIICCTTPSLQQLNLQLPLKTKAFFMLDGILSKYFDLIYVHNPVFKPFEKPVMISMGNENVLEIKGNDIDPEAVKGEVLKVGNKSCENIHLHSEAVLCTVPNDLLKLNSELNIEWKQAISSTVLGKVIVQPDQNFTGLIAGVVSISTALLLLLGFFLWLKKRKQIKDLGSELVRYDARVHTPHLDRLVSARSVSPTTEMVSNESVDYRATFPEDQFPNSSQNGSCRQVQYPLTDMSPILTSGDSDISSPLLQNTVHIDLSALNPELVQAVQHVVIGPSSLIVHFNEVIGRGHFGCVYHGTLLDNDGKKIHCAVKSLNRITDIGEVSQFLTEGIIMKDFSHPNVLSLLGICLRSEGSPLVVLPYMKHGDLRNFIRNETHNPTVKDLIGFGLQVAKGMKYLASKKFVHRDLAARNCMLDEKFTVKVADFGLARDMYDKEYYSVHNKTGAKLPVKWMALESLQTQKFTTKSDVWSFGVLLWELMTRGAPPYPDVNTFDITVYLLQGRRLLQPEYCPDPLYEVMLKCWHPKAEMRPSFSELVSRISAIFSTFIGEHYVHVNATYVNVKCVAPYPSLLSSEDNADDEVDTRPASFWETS
Measured parameter: WC ELISA (fold over background) (fold)
Record the value in fold, omitting the unit from your answer.

Challenge: Indicate its recorded WC ELISA (fold over background); the binder in question is AGSSPCKGWPTFECYFYGT [552-F01 peptide-displaying phage (SEQ ID NO: 087)]
Response given: 1.3

Challenge: Indicate its recorded WC ELISA (fold over background); the binder in question is AQGGRYPFYDTDWFKWEMYVL [527-A10 peptide-displaying phage (SEQ ID NO: 496)]
Response given: 1.3

Challenge: Indicate its recorded WC ELISA (fold over background); the binder in question is AQEWQTWTWNMIEVISENKTP [117-F03 peptide-displaying phage (SEQ ID NO: 468)]
Response given: 1.4

Challenge: Indicate its recorded WC ELISA (fold over background); the binder in question is GDHRKCEISAKTHEVTCYDNDP [545-F04 peptide-displaying phage (SEQ ID NO: 402)]
Response given: 1.17

Challenge: Indicate its recorded WC ELISA (fold over background); the binder in question is GSLIFCPYGECMMYAP [470-E11 peptide-displaying phage (SEQ ID NO: 005)]
Response given: 1.33

More entries:
Challenge: Indicate its recorded WC ELISA (fold over background); the binder in question is GSQNNCEYGSRGSSFCLAMAP [465-C06 peptide-displaying phage (SEQ ID NO: 377)]
Response given: 1.23

Challenge: Indicate its recorded WC ELISA (fold over background); the binder in question is AGSWHCAGPPSFECWEFGT [331-G04 peptide-displaying phage (SEQ ID NO: 055)]
Response given: 1.47

Challenge: Indicate its recorded WC ELISA (fold over background); the binder in question is AQRDYLFYWNDGSYQPWQVFVG [523-A04 peptide-displaying phage (SEQ ID NO: 493)]
Response given: 1.3

Challenge: Indicate its recorded WC ELISA (fold over background); the binder in question is AGGHWCLELKHLCPPYGT [465-B06 peptide-displaying phage (SEQ ID NO: 044)]
Response given: 1.23

Challenge: Indicate its recorded WC ELISA (fold over background); the binder in question is AQMGHHWDVQWDYKLFHVARGD [136-D01 peptide-displaying phage (SEQ ID NO: 473)]
Response given: 1.23

Challenge: Indicate its recorded WC ELISA (fold over background); the binder in question is AQKTWFLEADLFQMFQEVTWQF [103-C04 peptide-displaying phage (SEQ ID NO: 490)]
Response given: 1.4

Challenge: Indicate its recorded WC ELISA (fold over background); the binder in question is GSGDPCSPGPSINGHCSVMAP [453-A05 peptide-displaying phage (SEQ ID NO: 382)]
Response given: 1.33
